Target: T1, His-tagged human CD40 extracellular domain (ECD) (human, UniProt P25942 21-193)
T1 construct: Bought from Sino Biological; also called human CD40 ECD; CD40-his ECD antigen; not shown: His tag
T1 sequence (P25942 21-193): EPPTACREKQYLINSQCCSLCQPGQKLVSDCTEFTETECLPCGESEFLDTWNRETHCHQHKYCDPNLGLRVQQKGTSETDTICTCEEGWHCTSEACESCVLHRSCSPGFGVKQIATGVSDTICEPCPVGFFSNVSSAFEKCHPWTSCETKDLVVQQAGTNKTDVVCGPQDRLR
Assay: SPR (IBIS MX96), antibody captured, monovalent CD40 ECD in solution
readout: koff (s⁻¹)

binder: antibody 15833 (antibody, human IgG1, kappa, L234A L235A, V domains shown, Fully human IgG1-LALA / kappa) VH: QVQLVESGGGVVQPGRSLRLSCAASGFTFSNYAMHWVRQAPGKGLEWVALISFDGSYKYYADSVKGRFTISRDNSKNTLYLQMNSLRAEDTAVYYCVKDAGYSSSWFFDYWGQGTLVTVSS VL: DIQMTQSPSSVSASVGDRVTITCRASQDISSWLAWYQQKPGKAPKLLIYAASSLQSGVPSRFSGSGSGTDFTLTISSLQPEDFGNYYCQQANSFPWTFGQGTKVEIKR
reportedValue: 0.00012
//
binder: antibody 15948 (antibody, human IgG1, kappa, L234A L235A, V domains shown, Fully human IgG1-LALA / kappa) VH: QVQLVESGGGVVQPGRSLRLSCAASGFTFSIYGMHWVRQAPGKGLEWVAVISYDGSNKYYADSVKGRFTISRDNSKNTLYLQMNSLRAEDTAVYYCAKDPDYYGSGSYYPDWGQGTLVTVSS VL: DIQLTQSPSFLSASVGDRVTITCRASQGISSYLAWYQQKPGKAPKLLIYAASTLQSGVPSRFSGSGSGTEFTLTISSLQPEDFATYYCQQVKSYPLTFGGGTKVEIKR
reportedValue: 0.00031
//
binder: antibody 16040 (antibody, human IgG1, kappa, L234A L235A, V domains shown, Fully human IgG1-LALA / kappa) VH: QVQLVESGGGVVQPGRSLRLSCAASGFTFSIYGMHWVRQAPGKGLEWVAVISYDGSNKYYADSVKGRFTISRDNSKNTLYLQMNSLRAEDTAVYYCAAGNWFDPWGQGTLVTVSS VL: DIQLTQSPSFLSASVGDRVTITCRASQGISSYLAWYQQKPGKAPKLLIYAASTLQSGVPSRFSGSGSGTEFTLTISSLQPEDFATYYCQQLNRYPLTFGGGTKVEIKR
reportedValue: 0.00036

meta.source: patent US20210214454A1
